# System: NIH3T3 cells overexpressing CaMKIIa-Active
# Test: MTT cell viability, CaMKIIa-Active overexpressing cells vs parental line
# Type: cell-based, mouse
# Assay conditions: CaMKIIa-Active high-expressing cells / parental cell line, 3 to 4 days
Reported endpoint: logarithmic value of ratio of IC40 values
Enter a number only.

{"columns": ["Compound", "Value"],
 "data": [
  ["CC(=O)OCOC(=O)CN(CC(=O)OCOC(C)=O)c1ccccc1OCCOc1ccccc1N(CC(=O)OCOC(C)=O)CC(=O)OCOC(C)=O [BAPTA-AM]", 0.18],
  ["C=C[C@@]1(C)CC(=O)[C@]2(O)[C@@]3(C)[C@@H](O)CCC(C)(C)[C@@H]3[C@H](O)[C@H](OC(C)=O)[C@@]2(C)O1 [Forskolin, forskolin]", 0.43],
  ["COC(=O)[C@@]1(O)C[C@H]2O[C@]1(C)n1c3ccccc3c3c4c(c5c6ccccc6n2c5c31)C(=O)NC4 [K252a]", 0.10]
]}

--- query ---
For this compound ( C/C=C(/C)C(=O)O[C@H]1C(C)=C2[C@H]([C@@H]1OC(=O)CCCCCCC)[C@@](C)(OC(C)=O)C[C@H](OC(=O)CCC)[C@@]1(O)[C@H]2OC(=O)[C@@]1(C)O [Thapsigargin, thapsigargin] ), measured logarithmic value of ratio of IC40 values is 0.03

----------
# System: NIH3T3 cells overexpressing erbB2
# Test: MTT cell viability, erbB2 overexpressing cells vs parental line
# Assay type: cell-based, mouse
# Assay conditions: erbB2 high-expressing cells / parental cell line, 3 to 4 days
// map logarithmic value of ratio of IC40 values onto a label; ranges 0 = under -0.6, 1 = from -0.6 up to -0.1, 2 = -0.1 and over

Worked examples follow.
{"columns": ["Compound", "System under test", "Assigned category"],
 "data": [
  ["CO[C@H]1[C@@H](OC)C[C@H](C)[C@@H](OC)C2=CC(=O)C=C(NC(=O)/C(C)=C/C=C\\[C@H](OC)[C@@H](OC(N)=O)/C(C)=C/[C@@H]1C)C2=O", "NIH3T3 cells overexpressing erbB2", 1],
  ["C/C=C(/C)C(=O)O[C@H]1C(C)=C2[C@H]([C@@H]1OC(=O)CCCCCCC)[C@@](C)(OC(C)=O)C[C@H](OC(=O)CCC)[C@@]1(O)[C@H]2OC(=O)[C@@]1(C)O", "NIH3T3 cells overexpressing erbB2", 2],
  ["CC(=O)OCOC(=O)CN(CC(=O)OCOC(C)=O)c1ccccc1OCCOc1ccccc1N(CC(=O)OCOC(C)=O)CC(=O)OCOC(C)=O", "NIH3T3 cells overexpressing erbB2", 1],
  ["C=C1[C@@H](O)[C@@H]2O[C@]3(CC[C@H](/C=C/[C@@H](C)[C@@H]4CC(C)=C[C@@]5(O[C@H](C[C@@](C)(O)C(=O)O)CC[C@H]5O)O4)O3)CC[C@H]2O[C@@H]1[C@@H](O)C[C@H](C)[C@H]1O[C@@]2(CCCCO2)CC[C@H]1C", "NIH3T3 cells overexpressing erbB2", 1],
  ["COc1ccc2c(c1)CC[C@@H]1[C@@H]2CC[C@]2(C)[C@@H](NCCCCCCN3C(=O)C=CC3=O)CC[C@@H]12", "NIH3T3 cells overexpressing erbB2", 0]
]}

-- ask Hello team, could you let me know which band the following compound falls into: C[C@@H]1C[C@@H]([C@H](O)CC2CC(=O)NC(=O)C2)C(=O)[C@@H](C)C1 [CHX, cycloheximide]
-- reply 0

-- ask Hello team, could you let me know which band the following compound falls into: "Nc1nc2nc[nH]c2c(=S)[nH]1"
-- reply 1

-- ask Hello team, could you let me know which band the following compound falls into: "O=CN/C=C/c1cc(O)ccc1O"
-- reply 2

----------
# Test system: NIH3T3 cells overexpressing TK
# Test: MTT cell viability, TK overexpressing cells vs parental line
# Assay type: cell-based, mouse
# Assay conditions: TK high-expressing cells / parental cell line, 3 to 4 days
Reported endpoint: logarithmic value of ratio of IC40 values
Enter a number only.

Some entries whose results are on file:
{"columns": ["Compound", "Value"],
 "data": [
  ["CN(C)CCCn1cc(C2=C(c3c[nH]c4ccccc34)C(=O)NC2=O)c2ccccc21 [GF109203X]", 0.00],
  ["CNc1ccc2oc(C[C@H]3O[C@@]4(CC[C@H]3C)O[C@H]([C@H](C)C(=O)c3ccc[nH]3)[C@H](C)C[C@H]4C)nc2c1C(=O)O [A23187]", 0.00]
]}

--- query ---
For this compound ( COC[C@H]1OC(=O)c2coc3c2[C@@]1(C)C1=C(C3=O)[C@@H]2CCC(=O)[C@@]2(C)C[C@H]1OC(C)=O [Wortmannin, wortmannin] ), measured logarithmic value of ratio of IC40 values is 0.00

----------
# Tested on: NIH3T3 cells overexpressing caspase-1
# Test: MTT cell viability, caspase-1 overexpressing cells vs parental line
# Type: cell-based, mouse
# Assay conditions: caspase-1 high-expressing cells / parental cell line, 3 to 4 days
Non-standard residues stand in square brackets, D forms with d. Residues, ends and D or L forms follow the SMILES beside them. Nle = CCCC[C@H](N)C(=O)O
Form field: logarithmic value of ratio of IC40 values (one value per entry).
Enter a number only.

{"columns": ["Compound", "Value"],
 "data": [
  ["CCCC[C@@H](C=O)NC(=O)[C@H](CC(C)C)NC(=O)[C@H](CC(C)C)NC(C)=O [ALLN] (Ac-Leu-Leu-[Nle]-aldehyde)", "−0.04"],
  ["CNc1ccc2oc(C[C@H]3O[C@@]4(CC[C@H]3C)O[C@H]([C@H](C)C(=O)c3ccc[nH]3)[C@H](C)C[C@H]4C)nc2c1C(=O)O", "−0.22"]
]}

For this compound ( "CC(=O)OCOC(=O)CN(CC(=O)OCOC(C)=O)c1ccccc1OCCOc1ccccc1N(CC(=O)OCOC(C)=O)CC(=O)OCOC(C)=O" ), measured logarithmic value of ratio of IC40 values is 0.60

For this compound ( "O=c1c(-c2ccc(O)cc2)coc2cc(O)cc(O)c12" ), measured logarithmic value of ratio of IC40 values is −0.12

For this compound ( "CN[C@@H]1C[C@H]2O[C@@](C)([C@@H]1OC)n1c3ccccc3c3c4c(c5c6ccccc6n2c5c31)C(=O)NC4" ), measured logarithmic value of ratio of IC40 values is 0.22

For this compound ( O=[As]O [NaAsO2, sodium arsenite] ), measured logarithmic value of ratio of IC40 values is −0.21

For this compound ( "O=CN/C=C/c1cc(O)ccc1O" ), measured logarithmic value of ratio of IC40 values is −0.22

For this compound ( COC(=O)[C@@]1(O)C[C@H]2O[C@]1(C)n1c3ccccc3c3c4c(c5c6ccccc6n2c5c31)C(=O)NC4 [K252a] ), measured logarithmic value of ratio of IC40 values is 0.04

For this compound ( "CO[C@H]1[C@@H](OC)C[C@H](C)[C@@H](OC)C2=CC(=O)C=C(NC(=O)/C(C)=C/C=C\[C@H](OC)[C@@H](OC(N)=O)/C(C)=C/[C@@H]1C)C2=O" ), measured logarithmic value of ratio of IC40 values is 0.00

For this compound ( C[C@@H]1C[C@@H]([C@H](O)CC2CC(=O)NC(=O)C2)C(=O)[C@@H](C)C1 [CHX, cycloheximide] ), measured logarithmic value of ratio of IC40 values is −0.05

----------
# Test system: NIH3T3 cells overexpressing CaMKIIa-Active
# Test: MTT cell viability, CaMKIIa-Active overexpressing cells vs parental line
# Assay type: cell-based, mouse
# Assay conditions: CaMKIIa-Active high-expressing cells / parental cell line, 3 to 4 days
Non-standard residues stand in square brackets, D forms with d. Residues, ends and D or L forms follow the SMILES beside them. Nle = CCCC[C@H](N)C(=O)O
Form field: logarithmic value of ratio of IC40 values (one value per entry).
Enter a number only.

Some entries whose results are on file:
{"columns": ["Compound", "Value"],
 "data": [
  ["CCCC[C@@H](C=O)NC(=O)[C@H](CC(C)C)NC(=O)[C@H](CC(C)C)NC(C)=O [ALLN] (Ac-Leu-Leu-[Nle]-aldehyde)", 0.20],
  ["CC(C)(C)C(=O)Oc1ccc(S(=O)(=O)Nc2ccccc2C(=O)NCC(=O)O)cc1", 0.35],
  ["O=CN/C=C/c1cc(O)ccc1O", 0.21]
]}

--- query ---
Short answer on NIH3T3 cells overexpressing CaMKIIa-Active for "O=c1c(-c2ccc(O)cc2)coc2cc(O)cc(O)c12" , logarithmic value of ratio of IC40 values: 0.23

----------
# Test system: NIH3T3 cells, TPA (PKC downreg)
# Test: MTT cell viability, TPA (PKC downreg) cells vs parental line
# Type: cell-based, mouse
# Assay conditions: 3 to 4 days
Non-standard residues stand in square brackets, D forms with d. Residues, ends and D or L forms follow the SMILES beside them. Nle = CCCC[C@H](N)C(=O)O
Reported endpoint: logarithmic value of ratio of IC40 values
Enter a number only.

For this compound ( "COc1ccc2c(c1)CC[C@@H]1[C@@H]2CC[C@]2(C)[C@@H](NCCCCCCN3C(=O)C=CC3=O)CC[C@@H]12" ), measured logarithmic value of ratio of IC40 values is −0.12

For this compound ( "CN[C@@H]1C[C@H]2O[C@@](C)([C@@H]1OC)n1c3ccccc3c3c4c(c5c6ccccc6n2c5c31)C(=O)NC4" ), measured logarithmic value of ratio of IC40 values is −0.12

For this compound ( "Nc1nc2nc[nH]c2c(=S)[nH]1" ), measured logarithmic value of ratio of IC40 values is 0.00

For this compound ( CCCC[C@@H](C=O)NC(=O)[C@H](CC(C)C)NC(=O)[C@H](CC(C)C)NC(C)=O [ALLN] (Ac-Leu-Leu-[Nle]-aldehyde) ), measured logarithmic value of ratio of IC40 values is −0.09

For this compound ( "O=CN/C=C/c1cc(O)ccc1O" ), measured logarithmic value of ratio of IC40 values is 0.00

For this compound ( "CO[C@H]1[C@@H](OC)C[C@H](C)[C@@H](OC)C2=CC(=O)C=C(NC(=O)/C(C)=C/C=C\[C@H](OC)[C@@H](OC(N)=O)/C(C)=C/[C@@H]1C)C2=O" ), measured logarithmic value of ratio of IC40 values is −0.07

For this compound ( "COC[C@H]1OC(=O)c2coc3c2[C@@]1(C)C1=C(C3=O)[C@@H]2CCC(=O)[C@@]2(C)C[C@H]1OC(C)=O" ), measured logarithmic value of ratio of IC40 values is 0.00
